B1: BRF1 (parent)
chain: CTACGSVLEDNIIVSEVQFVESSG

variants of: B1; assay: protein stability index of a GFP-peptide fusion (GPS, HEK-293T) (PSI 1-6); higher = more stable; conditions: c terminus: a fixed tail appended;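 also: lentivirally expressed fusions sorted by FACS into six bins by GFP to DsRed ratio, PSI derived from sequencing read proportions per bin multiplied by bin number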
Tick T if protein stability index is 3 or greater. Tick F if protein stability index is less than 3.

Sample answers from the record:
Task: Kindly determine if protein stability index recorded for S15L is above or exactly 3.
Result: F

Task: Kindly determine if protein stability index recorded for A3V is above or exactly 3.
Result: T

Task: Reported protein stability index at or above 3? I13D
Result: T

Task: Form field: protein stability index at least 3? Entry: Q18C
Result: F

Task: Entry V17C : is its protein stability index no less than 3?
Result: T

Task: Could you please find out whether S23I has protein stability index that meets 3 or exceeds it?
Result: F

Task: protein stability index >= 3 for Q18M ?
Result: F

Task: Determine whether this variant has protein stability index no lower than 3: D10W
Result: F

***
Task: Reported protein stability index at or above 3? I13E
Result: T

Task: Hi team, for V14C , is the recorded protein stability index at or above 3?
Result: F

Task: Confirm if protein stability index reported for the variant T2S is 3 or above.
Result: F

Task: Test whether the variant E16W records protein stability index of 3 or higher.
Result: F

Task: Item E9C with protein stability index of 3 or above?
Result: F

Task: Hi, just wondering whether V17W shows protein stability index of 3 or higher.
Result: F

Task: Can S22E be said to have protein stability index at or above 3?
Result: T

Task: Evaluate C1T : protein stability index at minimum 3?
Result: T

Task: Please check the record E16I and state if its protein stability index is at or above 3.
Result: T

Task: Textbook exercise: given the entry Q18H , state whether its protein stability index is greater than or equal to 3.
Result: F

Task: Assess whether reported protein stability index for V14P sits at 3 or higher.
Result: T

Task: Assess whether reported protein stability index for E16Q sits at 3 or higher.
Result: F
